- Tested on: R275C/Slo1WT/beta2
- assayOverview: modulators of BK channel variants, profiling panel, selectivity assay, cell-based, U2OS BacMam, thallium flux, beta subunits (AID 1259406);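 further: initial slope of Thallos dye fluorescence rise after thallium is added; log ratio against the mean of 0.3% DMSO vehicle wells on the same plate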
- setupConditions: at 30 µM
Non-standard residues stand in square brackets, D forms with d. Residues, ends and D or L forms follow the SMILES beside them. pGlu = O=C1CC[C@@H](C(=O)O)N1; Thz = O=C(O)[C@@H]1CSCN1
Binning scheme for log fold change Tl+ flux: low band (below -0.02), middle band (-0.02 to below 0.01), high band (0.01 or more)

> print(dat)
                                    molecule  assignedcategory
 1  Cc1cnc(C(=O)NCCc2ccc(S(=O)(=O)NC(=O)NC3CCCCC3)cc2)cn1         high band
 2  FC(F)(F)COc1ccc(-c2nnc(SCc3ccccc3C(F)(F)F)o2)cn1         high band
 3  COc1cc(C[C@@H](CO)[C@H](CO)Cc2ccc(O)c(OC)c2)ccc1O         high band
 4  NC(C=Cc1cc(C(F)(F)F)cc(C(F)(F)F)c1)=NOC(=O)c1c(F)cccc1F         high band
 5  O=C(Nc1ccc(OC(F)(F)F)cc1)Nc1cc(C(F)(F)F)ccc1N1CCOCC1          low band
 6     CC(C)(S)C(N)C(=O)O (stereo not drawn)       middle band
 7  Cc1ccc(S(=O)(=O)NC(=O)Nc2nc(-c3ccc(C)c(Cl)c3)c(C)s2)cc1         high band
 8  CC1c2cccc(O)c2C(O)=C2C(=O)[C@]3(O)C(O)=C(C(N)=O)C(=O)[C@@H](N(C)C)[C@@H]3C[C@@H]21 (stereo partly drawn)         high band
 9                      Cc1c(O)nc2ccccn2c1=O         high band
10  CC1c2cccc(O)c2C(O)=C2C(=O)C3(O)C(O)=C(C(N)=O)C(=O)C(N(C)C)C3C(O)C21 (stereo not drawn)          low band
11  COCCCNC1=C(C#N)C(=O)NC(c2cccs2)S1 (stereo not drawn)          low band
12  CCOC(=O)[C@@H](CCc1ccccc1)N[C@@H](C)C(=O)N1CCC[C@H]1C(=O)O          low band
13  O=C1CC[C@@H](C(=O)N2CSC[C@H]2C(=O)O)N1 ([pGlu]-[Thz]-OH)          low band
14   C#Cc1cccc(NS(=O)(=O)c2ccc(Cl)c(Cl)c2)c1          low band
15  CC(C(O)c1ccc(O)cc1)N1CCC(Cc2ccccc2)CC1 (stereo not drawn)       middle band
16  Cc1cc(NS(=O)(=O)c2ccc(NC(=O)c3nccnc3C(=O)O)cc2)no1          low band
17  Cc1[nH]n(-c2c(Cl)cc(C(F)(F)F)cc2Cl)c(=O)c1N=Nc1ccccc1          low band
18  O=C1c2c(O)cc(O)cc2O[C@H](c2ccc(O)c(O)c2)[C@@H]1O       middle band
19                          O=c1ncc(F)c[nH]1       middle band
20  O=C(Nc1c(S(=O)(=O)c2ccccc2)csc1Br)c1ccccc1Cl         high band
21  O=C(CC1SC(=NC2CC3C=CC2C3)NC1=O)Nc1ccccc1Cl (stereo not drawn)          low band
22  COc1ccccc1NC(=S)NNC(=O)CSc1ccccc1[N+](=O)[O-]          low band
23         CN(C)CCc1c[nH]c2ccc(Cn3cncn3)cc12         high band
24     CCC(CO)NCCNC(CC)CO (stereo not drawn)         high band
25          CCCCCCCCCCCC(=O)N1CC(=O)NC(=O)C1         high band
26  CN1CC(=O)N2[C@H](c3ccc4c(c3)OCO4)c3[nH]c4ccccc4c3C[C@@H]2C1=O       middle band
27             CC(=O)C(=CN(C)C)Sc1ccc(Cl)cc1       middle band
28       O=C(c1ccccc1)c1ccc2c(c1)Cc1ccccc1-2       middle band
29  Cc1ccc(S(=O)(=O)Oc2c(Cc3ccccc3)c(=O)n(C)c3ccccc23)cc1         high band
30   O=C1CN(N=Cc2ccc([N+](=O)[O-])o2)C(=O)N1          low band
31      Cc1cc(C)c(C(=O)O)c(CC(C)(C)C(=O)O)c1         high band
32  CN1[C@@H]2CC[C@H]1CC(OC(=O)C(CO)c1ccccc1)C2 (stereo partly drawn)         high band
33              CN(C1CCCCC1)S(=O)(=O)c1cccs1         high band
34  O=c1c(O[C@@H]2O[C@H](CO)[C@@H](O)[C@H](O)[C@H]2O)c(-c2ccc(O)c(O)c2)oc2cc(O)cc(O)c12       middle band
35  O=C(O)C[C@H](O)C[C@H](O)/C=C/c1c(C2CC2)nc2ccccc2c1-c1ccc(F)cc1         high band
36                         CCSc1n[nH]c(=S)s1       middle band
37       CCOC(=O)c1c[nH]n2c(=O)c3c(nc12)CCC3          low band
38  CN(C)S(=O)(=O)c1ccc2c(c1)/C(=C\CCN1CCNCC1)c1ccccc1S2         high band
39  COc1ccc(CCNC(=O)c2ccccc2NC(=O)c2ccccc2C)cc1OC          low band
40      CCOC(=O)c1ccc(OC(=O)CCCCCN=C(N)N)cc1          low band
41  CCCCC(=O)OC1(C(=O)CO)CCC2C3CCC4=CC(=O)CCC4(C)C3C(O)CC21C (stereo not drawn)       middle band
42  O=C(NC1CCSC1)c1ccccc1NS(=O)(=O)c1ccccc1 (stereo not drawn)       middle band
43  N[C@@H](C(=O)N[C@@H]1C(=O)N2C(C(=O)O)=C(CSc3cn[nH]n3)CS[C@H]12)c1ccc(O)cc1 (tested in a mixture with another compound)       middle band

* * *

- assayOverview: sensitizers of A549 cells to miR-34 induction, primary screen, imaging, A549 dox-inducible miR-34, nuclei and caspase counts (AID 1347080)
- setupConditions: A549 miR-34 inducible, Hoechst nuclei count, 48 h; measured here: total cells without miR-34 induction
Recorded cell count by entry
measuredEndpoint: cell count

> print(dat)
                                   compound  endpointvalue
1  CO/N=C(/C(=O)NC1C(=O)N2C(C(=O)O)=C(CSc3nnnn3C)CSC12)c1csc(N)n1 (stereo unspecified)           9680
2  CC(=O)OC1CC2CCC1(C)C2(C)C (stereo unspecified)           9520
3  CN1CCN(CCC=C2c3ccccc3Sc3ccc(S(=O)(=O)N(C)C)cc32)CC1          11100
4  CN1[C@@H]2CCC[C@H]1CC(NC(=O)c1nn(C)c3ccccc13)C2 (stereo partly specified)          10600
5  Cc1onc(-c2ccccc2)c1C(=O)NC1C(=O)N2[C@@H]1SC(C)(C)[C@@H]2C(=O)O (stereo partly specified)          13500
6  NC(N)=NCCCC(N)C(=O)O (stereo unspecified)           9960

* * *

Recorded growth inhibition by entry
- assayOverview: antimalarial activity against Dd2 strain (AID 2302);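 further: 0% = DMSO untreated growth and 100% = chloroquine plus artemisinin killed control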
- setupConditions: P. falciparum Dd2 in RBCs, LDH growth readout, 72 h; at 2 µM; stronger effect = higher value
measuredEndpoint: growth inhibition (%)

> print(dat)
                                    compound  endpointvalue
 1  CN(CCN1CCC(c2c[nH]c3ccccc23)CC1)c1ccc(-c2nc3cc(Cl)c(Cl)cc3[nH]2)cc1            101
 2  O=C(NCCN1CCC(c2ccncc2)CC1)c1cccc(Nc2nccc(Nc3ccc(Oc4ccccc4)cc3)n2)c1             91
 3  CCOC(=O)c1ccc(NC(=O)Nc2cccc(-c3cccc(-c4nc5ccc(F)cc5[nH]4)c3)c2)cc1            100
 4  O=C(NCC(c1ccc(C(F)(F)F)cc1)N1CCCC1)c1cc(-c2ccncc2)c(-c2cccc(O)c2)o1 (centres undefined)             53
 5  CC(C)(Oc1c(C2CCN(CCCCNC(=O)c3ccc(-c4ccc(Cl)cc4)cc3)CC2)ccc2c1CCCC2)C(N)=O              5
 6       CC(C)(C)Nc1cc(C2CC2)nc(-c2ccccn2)n1             75
 7  CCN1CCc2c1cc(C(=O)N[C@@H](Cc1ccccc1)[C@H](O)CNC(C)(C)c1cccc(C(F)(F)F)c1)cc2N1CCCCS1(=O)=O             99
 8         Nc1nc(N)c2c(Oc3cccc(Cl)c3)cccc2n1              7
 9  COc1ccc2c(NN=Cc3c(OC)ccc4ccccc34)cc(C)nc2c1             85
10  CCCCCCCN(Cc1ccc(OC(C)(C)C(=O)OCC)cc1)C(=O)Nc1ccc(Cl)cc1OCC             89
11           CCCCC#Cc1cnc2nc(N)[nH]c(=O)c2n1              2
12  CCn1c(-c2nonc2N)nc2c(-c3cccc(NC(=O)Nc4cccc(C#N)c4)c3)ncc(OCCCN)c21             80
13  O=C(CC1CCCC1)N(Cc1ccc(-c2ccc(CNC3Cc4ccccc4C3)cc2)cc1)CC1CCCCN1 (centres undefined)             86
14  CN1CCN(CCCNCc2cccc(Nc3nccc(Nc4ccc(Oc5ccccc5)cc4)n3)c2)CC1             80
15  COc1cccc(Nc2nccc(-c3c(-c4cccc(NC(=O)c5c(F)cccc5F)c4)nn4ccccc34)n2)c1             98
16  CC(C)(CNCc1ccc(OC(F)(F)F)cc1)c1nc(-c2ccc(Cl)c(O)c2)c(-c2ccncc2)[nH]1             99
17         Cc1nc(N)nc(N)c1OCc1ccc(Cl)c(Cl)c1              5
18             CC(=NNC(=S)NCc1ccco1)c1ccccn1            100
19           CCOc1ccc2nc(NC(=O)c3csnn3)sc2c1             98
